target: Beta-secretase 1 (Homo sapiens, UniProt P56817)
Sequence (P56817 whole entry): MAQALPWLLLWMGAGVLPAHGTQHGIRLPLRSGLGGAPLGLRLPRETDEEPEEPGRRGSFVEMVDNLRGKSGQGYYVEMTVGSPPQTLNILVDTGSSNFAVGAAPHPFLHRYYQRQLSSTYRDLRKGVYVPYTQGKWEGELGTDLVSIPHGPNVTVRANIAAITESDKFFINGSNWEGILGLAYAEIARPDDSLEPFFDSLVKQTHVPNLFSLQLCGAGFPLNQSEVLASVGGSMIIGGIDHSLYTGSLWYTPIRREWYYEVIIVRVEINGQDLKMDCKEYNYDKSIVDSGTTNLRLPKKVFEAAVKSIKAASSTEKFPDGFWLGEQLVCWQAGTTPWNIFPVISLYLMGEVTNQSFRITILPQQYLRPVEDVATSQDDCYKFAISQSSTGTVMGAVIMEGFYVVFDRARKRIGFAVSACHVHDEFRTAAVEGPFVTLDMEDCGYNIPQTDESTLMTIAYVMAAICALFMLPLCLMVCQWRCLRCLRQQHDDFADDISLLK
Peptide text beside a SMILES is read from it.
Measurement Name: IC50 (µM)
Numbers only, in µM.

Molecule	Recorded Value
CC[C@H](C)[C@H](NC(=O)[C@H](CCC(=O)O)NC(=O)[C@H](CCC(=O)O)NC(=O)[C@@H](NC(=O)[C@@H](N)CCCCN)[C@@H](C)O)C(=O)N[C@@H](CO)C(=O)N[C@@H](CCC(=O)O)C(=O)N[C@H](C(=O)N[C@@H](CC(N)=O)C(=O)N[C@@H](CC(C)C)[C@@H](O)CC(=O)N[C@H](C(=O)N[C@@H](C)C(=O)N[C@@H](CCC(=O)O)C(=O)N[C@@H](Cc1ccccc1)C(=O)O)C(C)C)C(C)C (HELM PEPTIDE1{K.T.E.E.I.S.E.V.N.[CC(C)C[C@H](N[*:1])[C@@H](O)CC(=O)[*:2]].V.A.E.F}$$$$V2.0)	0.12
COc1ccc(-c2cc(-c3ccc(Cl)cc3)c(C#N)c(SCC(=O)N(c3ccccc3)c3ccc4ccccc4c3)n2)cc1	50

Moving on to the next molecule.
Short answer for Cc1nn(-c2ccccc2)c(Cl)c1C1Nc2ccccc2-c2nnc(SCc3ccccc3)nc2O1 (stereo not drawn) : IC50 was 100
